The reported measurements were obtained from patent US12564595B2.

Items are presented alongside their recorded Remaining percentage.
Assay: Test Example 8: metabolic stability test
Type: in vitro ADME, human
Conditions: pooled human liver microsomes, 30 min at 37° C., NADPH, compound concentration 0.5 μmol/L
Protocol: The extent of metabolization of the compound according to the present invention in the liver was evaluated by reacting commercially available pooled human liver microsomes with the compound according to the present invention for a fixed time and calculating the remaining percentage by comparing the reaction sample with an unreacted sample. […]

{"columns": ["Compound", "Unit symbol", "Remaining percentage"],
 "data": [
  ["CN1C(=O)c2c(O)c(=O)c(-c3nnc(Cc4ccc(F)cc4F)s3)cn2N2CCCC[C@@H]12 [II-098]", "%", 109],
  ["CCN1C(=O)c2c(O)c(=O)c(C(=O)NCc3c(F)cc(F)cc3F)cn2N2C[C@@H]3CC[C@@H](O3)[C@@H]12 [II-041]", "%", 88.4],
  ["CCN1C(=O)c2c(O)c(=O)c(C(=O)NCc3ccc(F)cc3F)cn2N2C[C@@H]3CC[C@@H](O3)[C@@H]12 [II-088]", "%", 101],
  ["CCN1C(=O)c2c(O)c(=O)c(-c3nnc(Cc4c(F)cc(F)cc4F)s3)cn2N2CCOC[C@@H]12 [II-106]", "%", 95.3]
]}

====

tested on: HIV; assay: Test Example 3: test for confirmation of combined use effect; type: cell-based; set-up: key: <-0.1 synergy, -0.1 to 0.1 additive, >0.1 antagonism; settings: combination with compound (B) Rilpivirine (polymerase inhibitor)
Items are presented alongside their recorded D value (dosewise additivity value).
Readout kind: D value (dosewise additivity value)

{"columns": ["Compound", "Numeric value"],
 "data": [
  ["CCN1C(=O)c2c(O)c(=O)c(-c3nnc(Cc4ccc(F)cc4F)s3)cn2N2C[C@@H](C)C[C@@H]12 [II-109]", "−0.096"],
  ["CCN1C(=O)c2c(O)c(=O)c(C(=O)NCc3c(F)cc(F)cc3F)cn2N2C[C@@H](C)CC[C@@H]12 [II-096]", "−0.035"],
  ["COC[C@@H]1CC[C@H]2N(C)C(=O)c3c(O)c(=O)c(C(=O)NCc4cccc(Cl)c4F)cn3N12 [II-026]", "−0.077"],
  ["CCN1C(=O)c2c(O)c(=O)c(-c3nnc(Cc4ccc(F)cc4F)s3)cn2N2[C@H](COC)CC[C@@H]12 [II-110]", "−0.073"],
  ["CN1C(=O)c2c(O)c(=O)c(C(=O)NCc3cccc(Cl)c3F)cn2N2CCCC[C@@H]12 [II-092]", "−0.022"],
  ["CCN1C(=O)c2c(O)c(=O)c(-c3nnc(Cc4c(F)cc(F)cc4F)s3)cn2N2CCCC[C@@H]12 [Compound I-007]", "−0.054"],
  ["C[C@H]1C[C@H]2N(C)C(=O)c3c(O)c(=O)c(C(=O)NCc4cccc(Cl)c4F)cn3N2C1 [II-036]", "−0.044"],
  ["CCN1C(=O)c2c(O)c(=O)c(C(=O)NCc3cccc(Cl)c3F)cn2N2[C@H]3COCC3C[C@@H]12 (some centres unmarked) [II-052]", "−0.020"]
]}

====

test system: HIV mutant strain 2 (E92Q/E138T/G140S/Q148H); assay: Test Example 2: resistance evaluation test (HeLa-CD4 reporter), mutant strain 2; assay type: cell-based; details: FC=EC50 of mutant strain/EC50 of wild strain; HeLa-CD4 cells
Items are presented alongside their recorded FC in respect of mutant strain 2 (E92Q/E138T/G140S/Q148H).
Readout kind: FC in respect of mutant strain 2 (E92Q/E138T/G140S/Q148H)

{"columns": ["Compound", "Numeric value"],
 "data": [
  ["C[C@H]1CC[C@H]2N(C)C(=O)c3c(O)c(=O)c(-c4nnc(Cc5ccc(F)cc5F)s4)cn3N2C1 [II-120]", 8],
  ["CCN1C(=O)c2c(O)c(=O)c(C(=O)NCc3c(F)cc(F)cc3F)cn2N2C[C@@H]3CC[C@@H](C3)[C@@H]12 [II-014]", 7.3],
  ["CN1C(=O)c2c(O)c(=O)c(C(=O)NCc3ccc(F)cc3F)cn2N2CCCC[C@@H]12 [Compound I-032]", 18],
  ["CN1C(=O)c2c(O)c(=O)c(-c3nnc(Cc4ccc(F)cc4F)s3)cn2N2CCCC[C@@H]12 [II-098]", 12],
  ["CCN1C(=O)c2c(O)c(=O)c(C(=O)NCc3ccc(F)cc3F)cn2N2C[C@H](COC)C[C@@H]12 [II-039]", 62],
  ["CCN1C(=O)c2c(O)c(=O)c(-c3nnc(Cc4c(F)cc(F)cc4F)s3)cn2N2C[C@@H](C)C[C@@H]12 [II-112]", 7],
  ["C[C@H]1C[C@H]2N(C)C(=O)c3c(O)c(=O)c(C(=O)NCc4cccc(Cl)c4F)cn3N2C1 [II-036]", 7.9],
  ["CN1C(=O)c2c(O)c(=O)c(C(=O)NCc3cccc(Cl)c3F)cn2N2CCOC[C@@H]12 [II-094]", 27],
  ["CN1C(=O)c2c(O)c(=O)c(C(=O)NCc3cccc(Cl)c3F)cn2N2C[C@@H]3CCC[C@@H](C3)[C@@H]12 [II-139]", 10],
  ["CCN1C(=O)c2c(O)c(=O)c(-c3nnc(Cc4c(F)cc(F)cc4F)s3)cn2N2CCCC[C@@H]12 [Compound I-007]", 6.9],
  ["CN1C(=O)c2c(O)c(=O)c(-c3nnc(Cc4ccc(F)cc4F)s3)cn2N2CCOC[C@@H]12 [II-102]", 22],
  ["CCN1C(=O)c2c(O)c(=O)c(-c3nnc(Cc4c(F)cc(F)cc4F)s3)cn2N2CC[C@@H](C)C[C@@H]12 [II-143]", 3.6],
  ["CCN1C(=O)c2c(O)c(=O)c(-c3nnc(Cc4ccc(F)cc4F)s3)cn2N2C[C@@H](C)C[C@@H]12 [II-109]", 2.5],
  ["C[C@H]1CC[C@H]2N(C)C(=O)c3c(O)c(=O)c(C(=O)NCc4ccc(Cl)cc4F)cn3N2C1 [II-063]", 25],
  ["CN1C(=O)c2c(O)c(=O)c(C(=O)NCc3c(F)cc(F)cc3F)cn2N2CCCC[C@@H]12 [II-089]", 14],
  ["CN1C(=O)c2c(O)c(=O)c(C(=O)NCc3cccc(F)c3F)cn2N2CCCC[C@@H]12 [II-091]", 17],
  ["CCN1C(=O)c2c(O)c(=O)c(C(=O)NCc3c(F)cc(F)cc3F)cn2N2C[C@@H](C)CC[C@@H]12 [II-096]", 8.9],
  ["CCN1C(=O)c2c(O)c(=O)c(C(=O)NCc3ccc(F)cc3F)cn2N2C[C@@H]3CCC[C@@H](C3)[C@@H]12 [II-013]", 8.7],
  ["CC(C)N1C(=O)c2c(O)c(=O)c(C(=O)NCc3c(F)cc(F)cc3F)cn2N2C[C@@H]3CC[C@@H](O3)[C@@H]12 [II-002]", 7.4],
  ["C[C@H]1CC[C@H]2N(C)C(=O)c3c(O)c(=O)c(C(=O)NCc4cccc(Cl)c4F)cn3N2C1 [II-019]", 7],
  ["CCN1C(=O)c2c(O)c(=O)c(-c3nnc(Cc4ccc(F)cc4)s3)cn2N2[C@H](COC)CC[C@@H]12 [II-118]", 31],
  ["CCN1C(=O)c2c(O)c(=O)c(-c3nnc(Cc4ccc(F)cc4F)s3)cn2N2C[C@@H](C)CC[C@@H]12 [II-155]", 5.1],
  ["CCN1C(=O)c2c(O)c(=O)c(C(=O)NCc3ccc(F)cc3F)cn2N2C[C@@H](C)C[C@@H]12 [II-045]", 21],
  ["CCN1C(=O)c2c(O)c(=O)c(-c3nnc(Cc4c(F)cc(F)cc4F)s3)cn2N2CCOC[C@@H]12 [II-106]", 20],
  ["CCN1C(=O)c2c(O)c(=O)c(-c3nnc(Cc4c(F)cc(F)cc4F)s3)cn2N2C[C@@H]3CC[C@@H](O3)[C@@H]12 [II-126]", 20],
  ["CN1C(=O)c2c(O)c(=O)c(-c3nnc(Cc4ccc(F)cc4F)s3)cn2N2C[C@@H]3CC[C@@H](C3)[C@@H]12 [II-138]", 11],
  ["C[C@@H]1CC[C@H]2N(C)C(=O)c3c(O)c(=O)c(-c4nnc(Cc5ccc(F)cc5F)s4)cn3N12 [II-113]", 6.5],
  ["CC(C)N1C(=O)c2c(O)c(=O)c(C(=O)NCc3c(F)cc(F)cc3F)cn2N2[C@H]3COC[C@H]3C[C@@H]12 [II-133]", 34],
  ["CN1C(=O)c2c(O)c(=O)c(C(=O)NCc3cccc(Cl)c3F)cn2N2C[C@@H]3CC[C@@H](C3)[C@@H]12 [II-023]", 15]
]}
